Test system: EpiDerm™ EPI-200-MNA skin tissues
Conditions: two treatments; vs solvent control
Property: % MN-BN response in individual experiment(s), Lab D, 48-h protocol

> print(dat)
                                   compound                       assay.target                      val
1             CC(=O)Nc1ccc2c(c1)Cc1ccccc1-2  EpiDerm™ EPI-200-MNA skin tissues  no significant increase
2                           Oc1ccc(Cl)cc1Cl  EpiDerm™ EPI-200-MNA skin tissues                 negative
3                             Cc1ccc(N)cc1N  EpiDerm™ EPI-200-MNA skin tissues                 negative
4    OC[C@@H](O)[C@@H](O)[C@H](O)[C@H](O)CO  EpiDerm™ EPI-200-MNA skin tissues  no significant increase
5  C1CC2OC2CC1C1CO1 (stereo not drawn) [4-Vinyl-1-cyclohexene diepoxide]  EpiDerm™ EPI-200-MNA skin tissues                 negative

----------
Target or system EpiDerm™ EPI-200-MNA skin tissues: recorded classification in the RSMN assay by Lab A listed per item.
Property: classification in the RSMN assay by Lab A

> print(dat)
                                   compound                       assay.target       val
1                O=[N+]([O-])c1cccc2ccccc12  EpiDerm™ EPI-200-MNA skin tissues  negative
2                    c1ccc2c(c1)ccc1ccccc12  EpiDerm™ EPI-200-MNA skin tissues  positive
3                 CCCCCl [N-Butyl chloride]  EpiDerm™ EPI-200-MNA skin tissues  negative
4          CCc1cc(C(N)=S)ccn1 [Ethionamide]  EpiDerm™ EPI-200-MNA skin tissues  negative
5                   O=c1[nH]cc(F)c(=O)[nH]1  EpiDerm™ EPI-200-MNA skin tissues  positive
6  Cc1c2ccccc2c(C)c2c1ccc1ccccc12 [7,12-Dimethylbenz[a]thracene (DMBA), 7,12-Dimethylbenz[a]anthracene]  EpiDerm™ EPI-200-MNA skin tissues  negative

----------
Test system: EpiDerm™ EPI-200-MNA skin tissues
Conditions: overall call
Property: classification in the RSMN assay by Lab B

Compound	Val
OC[C@@H](O)[C@@H](O)[C@H](O)[C@H](O)CO [D-Mannitol]	negative
C1=Cc2cc3cccc4ccc5ccc1c2c5c43 [Cyclopenta[c,d]pyrene (CPPE), Cyclopenta[c,d]pyrene]	positive
Nc1ccn([C@@H]2O[C@H](CO)[C@@H](O)[C@@H]2O)c(=O)n1 [Cytosine arabinoside]	negative
CCC(=O)OCC(=O)[C@@]1(OC(=O)CC)[C@@H](C)C[C@H]2[C@@H]3CCC4=CC(=O)C=C[C@]4(C)[C@@]3(Cl)[C@@H](O)C[C@@]21C [Beclomethasone dipropionate]	negative
O=C(O)Cc1ccccc1Nc1c(Cl)cccc1Cl [Diclofenac]	positive
CC(=O)Nc1ccc2c(c1)Cc1ccccc1-2 [2-Acetylaminofluorene (2-AAF), 2-Acetylaminofluorene]	negative
O=[N+]([O-])c1ccc(O)cc1 [4-Nitrophenol]	negative
COS(C)(=O)=O [Methyl methanesulfonate (MMS), Methyl methanesulfonate]	positive
COc1cc(/C=C/C(=O)CC(=O)/C=C/c2ccc(O)c(OC)c2)ccc1O [Curcumin]	positive
CCCCNC(=O)NS(=O)(=O)c1ccc(C)cc1 [Tolbutamide]	negative
C1CC2OC2CC1C1CO1 (stereo not shown) [4-Vinyl-1-cyclohexene diepoxide]	positive
[Cl][Cd][Cl] [Cadmium chloride (CdCl2), Cadmium chloride]	negative
Cc1ccc(N)cc1N [2,4-Diaminotoluene (2,4-DAT), 2,4-Diaminotoluene]	negative
